Measured values drawn from patent US11357779B2 for this set.

# Assay notes: Plasma concentration versus time of Compound I and metabolite Compound III in patients dosed QD or BID with Form B of Compound II plus fulvestrant
# Type: in vivo, human
# Condition info: human, plasma, oral, 650 mg, Cohort 5, 650 mg QD of Form B, Day 29, 6.0 h; read-out: Compound III Concentration, Min
# From the text: Patients were enrolled into 1 of 2 parallel, independently operating, dose-escalation dosing cohorts with Form B of Compound II administered continuously either once daily (QD) or twice daily (BID) with food with fixed-dose fulvestrant (intramuscularly every 14 days for the first three injections and then every 28 days). Pre- or perimenopausal patients also received goserelin for the duration of study treatment. […]

- Compound: "O=C1NCC2(CCCCC2)n2c1cc1cnc(Nc3ccc(N4CCNCC4)cn3)nc12 [Compound III]"
  Units text: "ng/mL"
  concentration at 6 h: 5.3
